Where do these numbers come from? They come from patent US20260015420A1.

Biological target: T1, cynomolgus monkey CD47-Fc (cynomolgus monkey, UniProt Q08722 19-139 (human entry), limits assumed)
T1 construct: also called cCD47; cyno CD47-Fc; not shown: Fc part
T1 chain: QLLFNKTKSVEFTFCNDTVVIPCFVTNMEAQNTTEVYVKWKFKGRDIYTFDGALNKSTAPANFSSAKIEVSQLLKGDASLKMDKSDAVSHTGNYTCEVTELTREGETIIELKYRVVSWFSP
Test: direct ELISA, coated cyno CD47-Fc, OD450
measured.property: binding result

B-A6, human IgG1null (antibody, V domains shown, IgG1null; also called Clone B-A6) VH: EVQLVQSGAEVKKPGESLKISCKGSGYSFTNYNIHWVRQMPGKGLEWMGTIYPGDSDTRYNQKFQGQVTISADKSISTAYLQWSSLKASDTAMYYCARGGIRAMDYWGQGTLVTVSS VL: DIVMTQSPLSLPVTPGEPASISCRSSQSLLHSNGNTYLGWYLQKPGQSPQLLIYKGSNRFSGVPDRFSGSGSGTDFTLKISRVEAEDVGVYYCFQGSHVPYIFGQGTKLEIK | binds
C-D5, human IgG1null (antibody, V domains shown, IgG1null; also called Clone C-D5) VH: EVQLVQSGAEVKKPGESLKISCKGSGYSFTNYNIHWVRQMPGKGLEWMGTIYPGDSDTRYNPKFQGQVTISADKSISTAYLQWSSLKASDTAMYYCARGGIRAMDYWGQGTLVTVSS VL: DIVMTQSPLSLPVTPGEPASISCRSSQSLLHSNYNTYLGWYLQKPGQSPQLLIYKGSNRFSGVPDRFSGSGSGTDFTLKISRVEAEDVGVYYCFQGSQTPYTFGQGTKLEIK | binds
D6 IgG, human IgG1null (antibody, V domains shown, The text prints both D6 and D-A6 for what reads as the same clone; IgG1null; also called D-A6 IgG; Clone D6) VH: EVQLVQSGAEVKKPGESLKISCKGSGYSFTNYNIHWVRQMPGKGLEWMGTIYPGNSDTSYNPSFQGQVTISADKSISTAYLQWSSLKASDTAMYYCARGGVRAMDYWGQGTLVTVSS VL: DIVMTQSPLSLPVTPGEPASISCRSSQSLLHSNGNTYLGWYLQKPGQSPQLLIYKGSNRFSGVPDRFSGSGSGTDFTLKISRVEAEDVGVYYCMQASQVPYTFGQGTKLEIK | binds
